From: the nanobody polyreactivity screen of Harvey et al. (2022)

test: yeast display, Sf9 membrane polyspecificity reagent, FACS + sequencing; frameworks hold sequencing errors
experimental.readout: polyreactivity (PSR sort gate)

sequence.data	experimental.readout	result
QVQLVESGGGLVQAGGSLRLSCAASGSIFTYYAMGWYRQAPGKEREFVAAISRRGGSTYYADSVKGRFTISRDNAKNTVYLQMNSLKPEDTAVYFCAADRWTRTLVKVIGRYYYCGQGTQVTVSS	polyreactivity (PSR sort gate)	high polyreactivity
QVQLVESGGGLVQAGGSLRLSCAASGSTFTGYTMGWYRQAPGKERELVASIRTYYADSVKGRFTISRDNAKNTVYLQMNSLKPEDTAVYYCAAKPGRYADYDYNSWGQGTQVTVSS	polyreactivity (PSR sort gate)	low polyreactivity
QVQLVESGGGLVQAGGSLRLSCAASGSTFTCYAMGWNRQAPRKERELVADITWRDGSTYYADSVKGRFTISRDNAKNTVYLQMNSLKPEDTAVYYCNGRRDYDMDWGQVTQVTVSS	polyreactivity (PSR sort gate)	high polyreactivity
QVQLEESGGGLVQAGGSLRLSCAASGSIFQSYDMGWYRQAPGKERELVAAISWSGSTTYYADSVKGRFTISRDNAKNTVYLQMNSLKPEDTAVYYSAVDSNPPDWWAVIYGYWGQGTQVTVSS	polyreactivity (PSR sort gate)	low polyreactivity
QVQLVESGGGLVQAGGSRRLSCAASGSTVYTNAMGWSRQAPGKVRELVAAISGSGGSTYYADSVKGRFTISRDNPKNTVYLQMNSLKPEDTAVYYCAARSRNYDTRFDYWGQGTQVTVSS	polyreactivity (PSR sort gate)	low polyreactivity

---

test: yeast display, Sf9 membrane polyspecificity reagent, FACS + sequencing; frameworks hold sequencing errors

sequence.data	polyreactivity (PSR sort gate)
QVQLVESGGGLVQAGGSLRLSCAASGSTFDSYAMGWYRQAPGKERELVAAITTTGGSTFYADSVKGRFTISRDNAKNTVYLQMNSLKPEDTAVYYCAADDGWQEFEYWGQGTQVTVSS	low polyreactivity
QVQLVESGGGLVQEGGSLRLICAASGRIFFYYAMGWYRQAPGKERELVAAISQSGGSTYYADSVKGRFTISRDNAKNTVYLQMNSLKPEDPAVYYCNAAEPYYDTSAVAGDYWGQGTQVTVSS	low polyreactivity
QVQLVESGGGLVQAGGSLRLSCAASGYTFGDYAMGWYRQAPGKERELVASITQTGGSTYADSVKGRFTISRDNAKNTVYLQMNSLKPEDTAVYYCNARYPWWESLRQTDRGKGFDYWGQGTQVTVSS	low polyreactivity
QVHLVESGGGLVQAGGSLRLSCAASGRTFETYAMGWYRQSPGKERELVAAITTSGGTTYYADSVKGRFTISRDNAKNTVYLQMKSLKPEDTAVYYCAADPWIEDTYGSKAYYYWGQGTQVTVSS	low polyreactivity
QVQLVESGGGLVQAGGSLRLSCAASGRTFYVYTMGLYRQAPGKELELVAAISSSGGSTYYADSVKGRFTISRDNAKNTVYLQMNSLKPEDTAVYYCNSQWSLTRYGYWGQGTQVTVSS	high polyreactivity
QVQLVESGGGLVQAGGSLRLSCAASGFIFVRYAMGWYRQAPGKEREFVAAISGGAGSTYYADSVKGRFTISRDNAKNTVYLQMNSLKPEDTAVYYCNRVRSLRYGYWGQGTQVTVSS	high polyreactivity
QVQLVETGGGLVKAGGSLRLSCAASGRIFLVNDMGWYRQAPGKERELVARINGGITNYADSVKGRFTISRDNAKNTVYFQMISLKPEDTAVYYCAARSRKYYSYYYWGQGTQLTVSS	high polyreactivity
QVQLVESGGGLVQAGGSLRLSCAASGRTFRAYAMGWYRQAPGKERELVAAISGTGDRTYYADSVKGRFTISRDYAKNTVYLQMNSLKPEDTAVYYCAVSYSYRYYYWGQGTQVTVSS	high polyreactivity
QVQLVESGGGLVQAGGSLRLSCAASGSTLDSNAMGWYRQATGKERELVAAIDWSGGSTYYADSVKGRFTISRDHAKNTVYLQMNSLKPEDTAVYYCAADDSSINYGDFDYWGQGTQVTVSS	low polyreactivity
QVQLVESGGGLVQAGGSLRLSCAASGIIFTTNAMGWYRQAPGKERELVATISTGGGTYYADSVKGRFTSSRDNAKNTVYLQMHSLKPEDTAVYYCAATPGWGPWIFDHSYVDFDYWGQGTQVTVSS	low polyreactivity
QVQLVESGGGLVQAGGSLRLSCAASGSTFSKYAMGWYRQAPGKERELVATISSTGSTNYADSVKGRFTISRDNAKNTVYLQMNSLKPEDTAVSYCNAGRRGRPYYKYYYWGQGTQVTVSS	high polyreactivity

---

test: yeast display, Sf9 membrane polyspecificity reagent, FACS + sequencing; frameworks hold sequencing errors

sequence.data	polyreactivity (PSR sort gate)
QVQLVESGGGLVQSGGSLRLSCAASGSIFNLYAMGWYRQAPGKERELVAAINWSGGSTYYADSVNGRFTISRDNAKNTVYLQMNRLKPEDTAVSYCAADAYSTYYGYEGVYWGQGTQVTVSS	low polyreactivity
QVQLVESGGGLLQAGGSLRLSCAASGIIFRWYAMGWYSQAPGKERELVATITRSGGSTYYADSVKGRFTISRDNAKKTVYLLMKSLKPEDTAVFYCATGRYPSGRPTRNYDSVYWGHGTQVTVSS	high polyreactivity
QVQLVESGGGLVQAGGSLRLSCAASGSTFDDYAMGWYRQAPGKERELVAAISYSGGSTYYADSVKGRFTISRDNAKNTVYLQMNSLKPEDTAVYYCAADDLYTDYETWWRRGDYCGQGTQVTVSS	low polyreactivity
PVQLVESGGGLGQAGGSLSLRCAASGSIFTYYAMVWYRQAPGKERELVADISNSGSTYYADSVNGRFTISRDNAKNTVYLQMNRLKPEDSAVSSCNAEYHDLYDYWGQGTQVTVSS	low polyreactivity
QVQLVESGGGLVQAGGSLRLSCAASGSTFVIYGMGWYRQAPGKERELVADITWIGGSTYYADSVKGRFTISRDNAKNTVYLQMNSLKPEDTAVYYCAADAAYLYLYNWYDTEDDYWGEGTQVTVSS	low polyreactivity
QVQLVESGGGLVQAGGSLRLSCAAPGNTFQYYAMGWSRQAPGKEREFVAAISRRGGSTYYADSVKGRFTISRDNAKNTVYLQMNSLKPEDTAVYYCNKVIFLSQSSYSFLYAYDYWGQGTQVTVSS	high polyreactivity
QVQLVESGGGLVQAGGSLRLSCAASGRTFWGYAMGWYRQAPGKERELVAAISLSGGRTNYADSVKGRFTISRDNAKNTVYLQMNSLKPEDTAVYYCAADKRPDGRMDYWGQGTQVTVSS	high polyreactivity
QVQLVESGVGLVQAGGSLRLSCAASGRTFVYAMGWYRQAPGKERELVAAISYNGGSTYYADSVKGRFTISRDNAKNTVYLQMNSLKPEDTAVYYCAADISVGRYGDMDYWGQGTQVTVSS	low polyreactivity
QVQLVESGGGLVQAGGSLRLSCAASGRTIRVYAMGWYRQAPGKERELVARINFRGGSTRYADSVKGRFTISRDNAKNTVYLQMNSLKPEDTAVYYCAARPSSFYYSNGFDYWGQGTQVTVSS	high polyreactivity
QVHLVESGGGLVQAGGSLRLSCAASGRTFPSYAMGWYRQAPGKERELVAAITRGGSTYYADSVKGRFTISRDNAKNTVYLQMNSLKPEDTAVYYCATRYGRARAYYYWGQGTQVTVSS	high polyreactivity
QVQLVESGARIVQAGGSLRLSCAAYGSTFGRYGMGWYRQAPGKERELVAAISRAGGTNYADSVKGRITISRDNAKNTVYLQMNSLKPEDTAVYYCNARWYYVLYDYWGQGTQVTVSS	low polyreactivity

---

assay: yeast display, Sf9 membrane polyspecificity reagent, FACS + sequencing; frameworks hold sequencing errors
experimental.readout: polyreactivity (PSR sort gate)

sequence.data	result
QVQLVESGGGLVQAGGSLSLSCAASGRIYYYAMGWYRQAPGKERELVAAITGRGGSTYYADSVKGRFTISRDNAKNRVYLQMNSLKPEDTAVYYCARAGCPRHDWGQGTQVTVSS	high polyreactivity
QVQLVESGGGLVQAGGSLRLSCAASGIIFDSYALGWYRQAPGKERELVAAITSRGGRTYYAVSVKGRFTISRDNAKNTVYLQMNSLKPEDTAVYYCAARAKYDRRTDGTSGYDYWGQGTQVTVSS	low polyreactivity
QVQLVESGGALVQAGGSLRLTCAASGSTFWDNSMGWYRQAPGKEREFVADITAIGGTTYYADSVKGRFTISRDNAQNTVYLQMNSLKPEDTAVYYCAADWTTYGFSYFSIYYYWGQGTQVTVSS	low polyreactivity
QVQLLESGVGLVQAGGSLRLSCAASGSILYINALGWSRPAPGKARELVAAITYSGGSTYYADSVKGRFTISRDNAKKPVYLQMNSLKPEDTAVYYCAADAVVAGRYDGHAYWGQGTQVTVSS	low polyreactivity
QVHLVESGGGLVQAGGSLRLSCASSGGTFPPNTMGWYRQAPGKEREFVAAITWRGSSTYYADSVKGRFTISRDNAKITFFLQMNSLKPEDSAVDYCAARRAYERMGFWGQGTQVTVSS	high polyreactivity
